Where do these numbers come from? They come from patent US7148232B2.

- Tested on: interferon (α)
- measurement protocol: Interferon (α) induction in human cells (in vitro human blood cell system, interferon by bioassay)
- Type: cell-based
- assay conditions: Dose Concentration 0.05 μg/mL; human PBM's, 48 hours
measured property: Interferon (α) Induction in Human Cells

Check out these entries, answers already filled in.
molecule: Cl.Nc1nc2ccccc2c2scnc12.O
Interferon (α) Induction in Human Cells: −

molecule: CCCCc1nc2c(N)nc3ccccc3c2o1 [Example 41, 2-Butyloxazolo[4,5-c]quinolin-4-amine]
Interferon (α) Induction in Human Cells: +

molecule: Cc1nc2c(N)nc3ccccc3c2s1.Cl
Interferon (α) Induction in Human Cells: −

molecule: CCCCc1nc2c(N)nc3cc(C)ccc3c2o1
Interferon (α) Induction in Human Cells: +

molecule: Cc1nc2c(N)nc3ccccc3c2o1 [Example 38, 2-Methyloxazolo[4,5-c]quinolin-4-amine]
Interferon (α) Induction in Human Cells: −

molecule: CCCc1nc2c(N)nc3cc(C)ccc3c2o1
Interferon (α) Induction in Human Cells: +

molecule: Cc1nc2c(N)nc3ccccc3c2s1 [Example 2, 2-Methylthiazolo[4,5-c]quinolin-4-amine]
Interferon (α) Induction in Human Cells: −

molecule: CCCc1nc2c(N)nc3cc(F)ccc3c2s1
Interferon (α) Induction in Human Cells: −

molecule: COCc1nc2c(N)nc3ccccc3c2s1
Interferon (α) Induction in Human Cells: −

Entry CCCCc1nc2c(N)nc3ccccc3c2s1 [Example 18, 2-Butylthiazolo[4,5-c]quinolin-4-amine] has what Interferon (α) Induction in Human Cells?
−
